Cited source: the MegaScale stability set (Tsuboyama et al. 2023)

B1: HHH_rd2_0155 (parent)
chain: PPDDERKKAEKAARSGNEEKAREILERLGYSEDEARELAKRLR

- Variants of: B1
- assay name: folding stability dG (cDNA display proteolysis); higher = more stable
- stated conditions: PBS, room temperature
Parameter class (string): assigned from measured folding stability dG. Ranges: low bin = under 1 kcal/mol, mid bin = from 1 kcal/mol up to 2 kcal/mol, high bin = 2 kcal/mol and over

Which folding stability dG category applies to P2F here?
high bin

Which folding stability dG category applies to G16R here?
mid bin

Which folding stability dG category applies to R27M here?
mid bin

Which folding stability dG category applies to E23K here?
high bin

Which folding stability dG category applies to L38T here?
mid bin

Which folding stability dG category applies to E19W here?
mid bin

Which folding stability dG category applies to A9D here?
low bin

Which folding stability dG category applies to D4E here?
high bin

Which folding stability dG category applies to R43I here?
mid bin

Which folding stability dG category applies to L38N here?
low bin

Which folding stability dG category applies to A21D here?
low bin

Which folding stability dG category applies to K40G here?
mid bin

Which folding stability dG category applies to G16E here?
low bin

Which folding stability dG category applies to S15G here?
mid bin

Which folding stability dG category applies to A9I here?
mid bin

Which folding stability dG category applies to R41A here?
mid bin

Which folding stability dG category applies to A12I here?
mid bin

Which folding stability dG category applies to K20Q here?
mid bin

Which folding stability dG category applies to K11D here?
high bin

Which folding stability dG category applies to A12F here?
high bin

Which folding stability dG category applies to S15K here?
mid bin

Which folding stability dG category applies to P1S here?
high bin

Which folding stability dG category applies to L28I here?
mid bin

Which folding stability dG category applies to K8A here?
high bin

Which folding stability dG category applies to L42N here?
low bin

Which folding stability dG category applies to R41H here?
mid bin

Which folding stability dG category applies to K20Y here?
high bin

Which folding stability dG category applies to R43L here?
mid bin

Which folding stability dG category applies to R36K here?
mid bin

Which folding stability dG category applies to R41Y here?
mid bin

Which folding stability dG category applies to L38R here?
low bin

Which folding stability dG category applies to E26D here?
low bin

Which folding stability dG category applies to R22T here?
mid bin

Which folding stability dG category applies to N17Q here?
mid bin

Which folding stability dG category applies to E26Y here?
mid bin

Which folding stability dG category applies to R27H here?
mid bin

Which folding stability dG category applies to P2C here?
high bin

Which folding stability dG category applies to K7D here?
mid bin

Which folding stability dG category applies to I24D here?
low bin

Which folding stability dG category applies to I24E here?
low bin

Which folding stability dG category applies to E37P here?
low bin

Which folding stability dG category applies to S31R here?
mid bin

Which folding stability dG category applies to L25Y here?
mid bin

Which folding stability dG category applies to L42H here?
low bin

Which folding stability dG category applies to A13L here?
mid bin

Which folding stability dG category applies to R43K here?
mid bin

Which folding stability dG category applies to R27Y here?
mid bin

Which folding stability dG category applies to R36W here?
mid bin

Which folding stability dG category applies to A13N here?
low bin

Which folding stability dG category applies to R6K here?
mid bin

Which folding stability dG category applies to A39C here?
high bin

Which folding stability dG category applies to S15I here?
mid bin

Which folding stability dG category applies to R27K here?
high bin

Which folding stability dG category applies to E10I here?
high bin

Which folding stability dG category applies to G29P here?
low bin

Which folding stability dG category applies to E32T here?
mid bin

Which folding stability dG category applies to E5T here?
mid bin

Which folding stability dG category applies to K7Q here?
high bin

Which folding stability dG category applies to D33P here?
mid bin

Which folding stability dG category applies to E26T here?
mid bin

Which folding stability dG category applies to P2V here?
high bin

Which folding stability dG category applies to G29Y here?
low bin

Which folding stability dG category applies to E37K here?
high bin

Which folding stability dG category applies to E23C here?
high bin

Which folding stability dG category applies to R43S here?
mid bin

Which folding stability dG category applies to A9L here?
mid bin

Which folding stability dG category applies to E34N here?
mid bin

Which folding stability dG category applies to E32N here?
mid bin

Which folding stability dG category applies to E19F here?
mid bin

Which folding stability dG category applies to K7S here?
mid bin

Which folding stability dG category applies to R14N here?
mid bin

Which folding stability dG category applies to A12S here?
mid bin

Which folding stability dG category applies to E34Q here?
mid bin

Which folding stability dG category applies to R6A here?
mid bin

Which folding stability dG category applies to S15N here?
high bin

Which folding stability dG category applies to S15D here?
high bin

Which folding stability dG category applies to A39G here?
low bin

Which folding stability dG category applies to L28N here?
low bin

Which folding stability dG category applies to E23S here?
mid bin

Which folding stability dG category applies to R36P here?
low bin

Which folding stability dG category applies to G16D here?
mid bin

Which folding stability dG category applies to G16I here?
mid bin

Which folding stability dG category applies to E5L here?
high bin

Which folding stability dG category applies to K8H here?
mid bin
